# credit: patent US11753407B2

REPORTED ENDPOINT: melting point

Problem: Endpoint output: melting point of "Cc1cn2cc(-c3cc(=O)n4cc(N5CCN(C)[C@@H](C)C5)ccc4n3)cc(F)c2n1" . Value?
Solution: 269 to 275 °C

Problem: Record: "COc1ccc(-c2cc(=O)n3cc(N4CCN[C@@H](C)C4)ccc3n2)cc1OC(F)(F)F"
Solution: 176 to 178 °C

Problem: Record: "CCc1nc(C)cn2nc(-c3cc(=O)n4cc(C5CCNCC5)ccc4n3)cc12"
Solution: 236 to 238 °C

Problem: Record: "COc1ccc(-c2cc(=O)n3cc(N4CCN(C)[C@H](C)C4)cc(C)c3n2)cc1OC"
Solution: 148 °C

Problem: Record: "Cc1cn2nc(-c3cc(=O)n4cc(C5CCN(C)CC5)ccc4n3)cc2c(C)n1"
Solution: 220 to 222 °C

Problem: Record: "COc1cccc(-c2cc(=O)n3cc(N4CCN(C)CC4)ccc3n2)c1"
Solution: 173 to 175 °C

Problem: Record: "COc1cc(F)cc(-c2cc(=O)n3cc(N4CCNCC4)ccc3n2)c1"
Solution: 168 to 170 °C

Problem: Record: "CCc1cc(-c2cc(=O)n3cc(N4CCN[C@@H](C)C4)ccc3n2)cn2cc(C)nc12"
Solution: 232 to 236 °C

Problem: Record: "Cc1cc(-c2cc(=O)n3cc(C4CCNCC4)ccc3n2)cc2cn(C)nc12"
Solution: 228 to 230 °C

Problem: Record: "C[C@H]1CN(c2ccc3nc(-c4cncc(F)c4)cc(=O)n3c2)CCN1"
Solution: 191 to 199 °C

Problem: Record: "COc1ccc(-c2cc(=O)n3cc(N4CCC(N(C)C)CC4)cc(C)c3n2)cc1OC"
Solution: 167 to 171 °C

Problem: Record: "CN(C)c1ccc(-c2cc(=O)n3cc(C4CCNCC4)ccc3n2)cn1"
Solution: 208 to 210 °C

Problem: Record: "CCN1CCN(c2ccc3nc(-c4cc(CO)c5nc(C)cn5c4)cc(=O)n3c2)CC1"
Solution: 258 to 262 °C

Problem: Record: "COc1ccc(-c2cc(=O)n3cc(N4C[C@H]5CN(C)C[C@H]5C4)ccc3n2)cc1F"
Solution: 204 to 210 °C

Problem: Record: "Cc1cn2nc(-c3cc(=O)n4cc(N5CCC(C)(N(C)C)CC5)ccc4n3)cc2c(C)n1"
Solution: 237 to 239 °C

Problem: Record: "Cn1cc2cc(-c3cc(=O)n4cc(C5CCN(CCO)CC5)ncc4n3)ccc2n1"
Solution: 230 to 232 °C

Problem: Record: "Cc1cn2cc(-c3cc(=O)n4cc(N5CCN[C@@H](C)C5)ccc4n3)cc(Cl)c2n1"
Solution: 236 to 239 °C

Problem: Record: "Cc1cn2cc(-c3cc(=O)n4cc(N5CCNCC5)ccc4n3)nc2cn1"
Solution: 221 to 225 °C

Problem: Record: "Cn1cc2cc(-c3cc(=O)n4cc(C5CCNCC5)ccc4n3)ccc2n1"
Solution: 194 to 196 °C

Problem: Record: "Cc1nc2c(F)cc(-c3cc(=O)n4cc(C5=CCNCC5)ccc4n3)cc2o1"
Solution: 177 to 180 °C

Problem: Record: "CCc1nc(C)cn2nc(-c3cc(=O)n4cc(N5CCCNCC5)ccc4n3)cc12"
Solution: 212 to 214 °C

Problem: Record: "Cc1cn2cc(-c3cc(=O)n4cc(N5CCNCC5)ccc4n3)cc(C(F)(F)F)c2n1"
Solution: 325 to 328 °C

Problem: Record: "COc1ccc(-c2ccc3nc(C4=CCNCC4)cc(=O)n3c2)cc1OC"
Solution: 172 to 178 °C

Problem: Record: "Cc1cn2nc(-c3cc(=O)n4cc(N5CCN(C)CC5)ccc4n3)cc2c(O)n1"
Solution: 280 to 283 °C

Problem: Record: "Cc1cc(C2CCN(C)CC2)cn2c(=O)cc(-c3ccc4nn(C)cc4c3)nc12"
Solution: 222 to 227 °C

Problem: Record: "Cc1cn2cc(-c3cc(=O)n4cc(N5CCN(C6CCC6)[C@@H](C)C5)ccc4n3)cc(Cl)c2n1"
Solution: 228 to 232 °C

Problem: Record: "COc1ccc(-c2ccc3nc(C4CCN(C)CC4)cc(=O)n3c2)cc1F"
Solution: 202 to 205 °C

Problem: Record: "COc1ccc(-c2cc(=O)n3cc(N4C[C@H]5CNC[C@H]5C4)ccc3n2)cc1F"
Solution: 195 to 200 °C

Problem: Record: "CCOc1cc(-c2cc(=O)n3cc(N4CCN[C@@H](C)C4)ccc3n2)ccc1OC"
Solution: 159 to 162 °C
